# Tested on: CAL-62 (Thyroid Gland Carcinoma)
# Assay Overview: combination Emax (second highest fraction inhibited in the dose matrix, 72 h); higher = more inhibition; extreme values may be limits of the assay
Measurement Label: combination Emax
A bare number is all that is needed in reply.

Query: Query (compound): COc1cc2ncnc(Nc3ccc(F)c(Cl)c3)c2cc1OCCCN1CCOCC1 [Gefitinib] + CC(C)n1c(=O)n(C)c2cnc3cc(F)c(-c4ccc(OCCCN5CCCCC5)nc4)cc3c21 [AZD1390] (first compound max 10 µM, 7x7, partner max 0.3 µM) ; field requested: combination Emax
Reply: 0

Query: Query (compound): CCN(CCO)CCCOc1ccc2c(Nc3cc(CC(=O)Nc4cccc(F)c4)[nH]n3)ncnc2c1 [AZD2811] + C[C@@H]1COCCN1C2=NC(=NC(=C2)C3(CC3)[S@](=N)(=O)C)C4=C5C=CNC5=NC=C4 [AZD6738] (first compound max 1 µM, 7x7, partner max 10 µM) ; field requested: combination Emax
Reply: 0.741

Query: Query (compound): CC1(C)CCC(CN2CCN(c3ccc(C(=O)NS(=O)(=O)c4ccc(NCC5CCOCC5)c([N+](=O)[O-])c4)c(Oc4cnc5[nH]ccc5c4)c3)CC2)=C(c2ccc(Cl)cc2)C1 [Venetoclax] + CN(C)CCCOc1ccc(-c2ccc3ncc4c(c3c2)n(C2CCOCC2)c(=O)n4C)cn1 [AZD0156] (first compound max 1 µM, 7x7, partner max 1 µM) ; field requested: combination Emax
Reply: 0.465

Query: Query (compound): Cc1cc2ncnn2cc1Nc1ncc2c(n1)n(C1CCOCC1)c(=O)n2C [AZD7648] + CCN(CCO)CCCOc1ccc2c(Nc3cc(CC(=O)Nc4cccc(F)c4)[nH]n3)ncnc2c1 [AZD2811] (first compound max 10 µM, 7x7, partner max 1 µM) ; field requested: combination Emax
Reply: 0.368

###

What combination Emax was measured for each of the following?
# System: GB-1 (Glioblastoma)
# Assay Overview: combination Emax (second highest fraction inhibited in the dose matrix, 72 h); higher = more inhibition; extreme values may be limits of the assay
A bare number is all that is needed in reply.

Query: Param readout = combination Emax; param system = GB-1 (Glioblastoma); param query = Cc1c2c(nn1C)CSCc1cc(n(C)n1)CSc1cc(c3ccccc3c1)OCCCc1c(C(=O)O)n(C)c3c-2c(Cl)ccc13 [AZD5991] + CCN(CCO)CCCOc1ccc2c(Nc3cc(CC(=O)Nc4cccc(F)c4)[nH]n3)ncnc2c1 [AZD2811] (first compound max 1 µM, 7x7, partner max 1 µM) ; response: value
Reply: 0.264

Query: Param readout = combination Emax; param system = GB-1 (Glioblastoma); param query = CN(CCO)CC[C@H](CSc1ccccc1)Nc1ccc(S(=O)(=O)NC(=O)c2ccc(N3CCC([C@@H](O)c4ccccc4-c4ccc(Cl)cc4)CC3)cc2)cc1S(=O)(=O)C(F)(F)F [AZD4320] + CN(C)CCCOc1ccc(-c2ccc3ncc4c(c3c2)n(C2CCOCC2)c(=O)n4C)cn1 [AZD0156] (first compound max 1 µM, 7x7, partner max 1 µM) ; response: value
Reply: 0.0923

###

What combination Emax was measured for each of the following?
# System: GB-1 (Glioblastoma)
# Assay Overview: combination Emax (second highest fraction inhibited in the dose matrix, 72 h); higher = more inhibition; extreme values may be limits of the assay
A bare number is all that is needed in reply.

Query: Param readout = combination Emax; param system = GB-1 (Glioblastoma); param query = Cc1c2c(nn1C)CSCc1cc(n(C)n1)CSc1cc(c3ccccc3c1)OCCCc1c(C(=O)O)n(C)c3c-2c(Cl)ccc13 [AZD5991] + CC1(C)CCC(CN2CCN(c3ccc(C(=O)NS(=O)(=O)c4ccc(NCC5CCOCC5)c([N+](=O)[O-])c4)c(Oc4cnc5[nH]ccc5c4)c3)CC2)=C(c2ccc(Cl)cc2)C1 [Venetoclax] (first compound max 1 µM, 7x7, partner max 1 µM) ; response: value
Reply: 0.133

Query: Param readout = combination Emax; param system = GB-1 (Glioblastoma); param query = CN(CCO)CC[C@H](CSc1ccccc1)Nc1ccc(S(=O)(=O)NC(=O)c2ccc(N3CCC([C@@H](O)c4ccccc4-c4ccc(Cl)cc4)CC3)cc2)cc1S(=O)(=O)C(F)(F)F [AZD4320] + C[C@@H](Nc1cc(F)cc(F)c1)c1cc(C(=O)N(C)C)cc2c(=O)cc(N3CCOCC3)oc12 [AZD8186] (first compound max 1 µM, 7x7, partner max 3 µM) ; response: value
Reply: 0.548

Query: Param readout = combination Emax; param system = GB-1 (Glioblastoma); param query = Cc1cc2ncnn2cc1Nc1ncc2c(n1)n(C1CCOCC1)c(=O)n2C [AZD7648] + CN(C)CCCOc1ccc(-c2ccc3ncc4c(c3c2)n(C2CCOCC2)c(=O)n4C)cn1 [AZD0156] (first compound max 10 µM, 7x7, partner max 1 µM) ; response: value
Reply: 0.19

Query: Param readout = combination Emax; param system = GB-1 (Glioblastoma); param query = Cc1cc2ncnn2cc1Nc1ncc2c(n1)n(C1CCOCC1)c(=O)n2C [AZD7648] + C[C@@H]1COCCN1C2=NC(=NC(=C2)C3(CC3)[S@](=N)(=O)C)C4=C5C=CNC5=NC=C4 [AZD6738] (first compound max 10 µM, 7x7, partner max 10 µM) ; response: value
Reply: 0.544

Query: Param readout = combination Emax; param system = GB-1 (Glioblastoma); param query = COc1nnc2ccc(N3CCC(c4ccc(OCCN5CCN(C)C(=O)[C@H]5C)cc4)CC3)nn12 [AZD5153] + CN(CC[C@H](CSC1=CC=CC=C1)NC2=C(C=C(C=C2)S(=O)(=O)NC(=O)C3=CC=C(C=C3)N4CCC(CC4)[C@H](C5=CC=CC=C5C6=CC=C(C=C6)Cl)O)S(=O)(=O)C(F)(F)F)CCO [AZD4320] (first compound max 1 µM, 7x7, partner max 1 µM) ; response: value
Reply: 0.292

Query: Param readout = combination Emax; param system = GB-1 (Glioblastoma); param query = CC1(C)CCC(CN2CCN(c3ccc(C(=O)NS(=O)(=O)c4ccc(NCC5CCOCC5)c([N+](=O)[O-])c4)c(Oc4cnc5[nH]ccc5c4)c3)CC2)=C(c2ccc(Cl)cc2)C1 [Venetoclax] + C=CCn1c(=O)c2cnc(Nc3ccc(N4CCN(C)CC4)cc3)nc2n1-c1cccc(C(C)(C)O)n1 [AZD1775] (first compound max 1 µM, partner max 1 µM) ; response: value
Reply: 0.296

###

# Test system: CAL-62 (Thyroid Gland Carcinoma)
# Assay Overview: Bliss excess, mean over the matrix (fraction); higher = more synergy
Measurement Label: Bliss excess
A bare number is all that is needed in reply.

Query: Query (compound): Cc1cc2ncnn2cc1Nc1ncc2c(n1)n(C1CCOCC1)c(=O)n2C [AZD7648] + C=CCn1c(=O)c2cnc(Nc3ccc(N4CCN(C)CC4)cc3)nc2n1-c1cccc(C(C)(C)O)n1 [AZD1775] (first compound max 10 µM, partner max 1 µM) ; field requested: Bliss excess
Reply: 0.0057

Query: Query (compound): CN(CCO)CC[C@H](CSc1ccccc1)Nc1ccc(S(=O)(=O)NC(=O)c2ccc(N3CCC([C@@H](O)c4ccccc4-c4ccc(Cl)cc4)CC3)cc2)cc1S(=O)(=O)C(F)(F)F [AZD4320] + C1CN(CCC1(C(=O)N[C@@H](CCO)C2=CC=C(C=C2)Cl)N)C3=NC=NC4=C3C=CN4 [Capivasertib] (first compound max 1 µM, 7x7, partner max 3 µM) ; field requested: Bliss excess
Reply: -0.0463

Query: Query (compound): N#Cc1cnc(Nc2cc(NC[C@H]3CNCCO3)c(C(F)(F)F)cn2)cn1 [SRA737] + CCc1c2c(nc3ccc(O)cc13)-c1cc3c(c(=O)n1C2)COC(=O)[C@]3(O)CC [SN-38] (first compound max 10 µM, 7x7, partner max 0.3 µM) ; field requested: Bliss excess
Reply: -0.0228

Query: Query (compound): Cc1cc2ncnn2cc1Nc1ncc2c(n1)n(C1CCOCC1)c(=O)n2C [AZD7648] + O=C(c1cc(Cc2n[nH]c(=O)c3ccccc23)ccc1F)N1CCN(C(=O)C2CC2)CC1 [Olaparib] (first compound max 10 µM, 7x7, partner max 10 µM) ; field requested: Bliss excess
Reply: -0.03

Query: Query (compound): Cc1cc2ncnn2cc1Nc1ncc2c(n1)n(C1CCOCC1)c(=O)n2C [AZD7648] + CN(C)CCCOc1ccc(-c2ccc3ncc4c(c3c2)n(C2CCOCC2)c(=O)n4C)cn1 [AZD0156] (first compound max 10 µM, 7x7, partner max 1 µM) ; field requested: Bliss excess
Reply: 0.0145

Query: Query (compound): CC(=O)c1c(C)c2cnc(Nc3ccc(N4CCNCC4)cn3)nc2n(C2CCCC2)c1=O [Palbociclib] + Cn1cnc2c(F)c(Nc3ccc(Br)cc3Cl)c(C(=O)NOCCO)cc21 [Selumetinib] (first compound max 10 µM, 7x7, partner max 10 µM) ; field requested: Bliss excess
Reply: 0.0248

Query: Query (compound): CN(CCO)CC[C@H](CSc1ccccc1)Nc1ccc(S(=O)(=O)NC(=O)c2ccc(N3CCC([C@@H](O)c4ccccc4-c4ccc(Cl)cc4)CC3)cc2)cc1S(=O)(=O)C(F)(F)F [AZD4320] + Cc1cc2ncnn2cc1Nc1ncc2c(n1)n(C1CCOCC1)c(=O)n2C [AZD7648] (first compound max 1 µM, 7x7, partner max 10 µM) ; field requested: Bliss excess
Reply: -0.0086
